Target chain: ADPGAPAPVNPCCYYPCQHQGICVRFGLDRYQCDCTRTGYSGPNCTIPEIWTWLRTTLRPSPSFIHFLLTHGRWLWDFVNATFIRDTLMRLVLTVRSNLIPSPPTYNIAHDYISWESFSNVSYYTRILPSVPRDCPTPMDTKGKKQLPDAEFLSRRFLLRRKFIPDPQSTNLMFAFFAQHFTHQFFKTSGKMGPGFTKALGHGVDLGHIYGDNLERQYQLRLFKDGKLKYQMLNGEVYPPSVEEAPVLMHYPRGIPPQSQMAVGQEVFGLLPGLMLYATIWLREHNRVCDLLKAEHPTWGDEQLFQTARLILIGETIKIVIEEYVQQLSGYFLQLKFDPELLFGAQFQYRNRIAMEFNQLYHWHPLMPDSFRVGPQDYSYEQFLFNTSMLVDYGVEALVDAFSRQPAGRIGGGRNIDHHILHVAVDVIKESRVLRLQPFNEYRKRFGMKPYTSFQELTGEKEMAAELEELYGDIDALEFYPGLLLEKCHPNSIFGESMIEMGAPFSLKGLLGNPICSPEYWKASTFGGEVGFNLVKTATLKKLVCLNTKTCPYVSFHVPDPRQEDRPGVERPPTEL
Provide the reported IC50 of each item.
Response body: numeric value in µM, unit text excluded.

Item: CCCCCCCCOC(=O)C(N)c1cc(O)c(O)c(O)c1 (racemic) | IC50: 85

Reported IC50 ( CCCCCCCCOC(=O)C(N)c1ccc(O)c(O)c1.Cl (racemic) [compound of formula (101), hydrochloride] ) = 110

====

molecular target: 5-lipoxygenase (Homo sapiens, UniProt P09917); construct: 5-lipoxygenase of human polymorphonuclear leucozytes; endogenous in cells; assay: Formation of 5-HETE by 5-lipoxygenase of human polymorphonuclear leucozytes; conditions: 1-^14 C-arachidonic acid (10 μmol/l)
Sequence (P09917 whole entry): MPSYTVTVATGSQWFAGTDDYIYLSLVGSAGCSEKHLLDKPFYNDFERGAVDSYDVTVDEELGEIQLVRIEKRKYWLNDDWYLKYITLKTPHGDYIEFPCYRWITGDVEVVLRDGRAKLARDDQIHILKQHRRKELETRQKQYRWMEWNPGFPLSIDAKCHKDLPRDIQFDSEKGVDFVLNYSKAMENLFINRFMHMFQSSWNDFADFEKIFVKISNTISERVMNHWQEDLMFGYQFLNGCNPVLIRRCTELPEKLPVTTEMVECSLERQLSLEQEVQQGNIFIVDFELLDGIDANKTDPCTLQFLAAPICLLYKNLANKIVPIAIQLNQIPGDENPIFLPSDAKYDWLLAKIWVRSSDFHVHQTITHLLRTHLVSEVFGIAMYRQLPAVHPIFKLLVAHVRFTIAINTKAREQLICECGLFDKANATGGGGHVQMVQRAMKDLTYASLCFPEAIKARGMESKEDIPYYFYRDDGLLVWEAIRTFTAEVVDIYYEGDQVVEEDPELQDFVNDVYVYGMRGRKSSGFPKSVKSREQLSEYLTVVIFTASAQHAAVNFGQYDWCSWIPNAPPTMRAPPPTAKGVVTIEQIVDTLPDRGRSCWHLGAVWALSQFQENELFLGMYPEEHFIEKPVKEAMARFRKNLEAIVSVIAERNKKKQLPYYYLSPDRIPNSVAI
Measure name: pIC50
# reply with the number alone; pIC50 is -log10 of concentration in mol/L

pIC50 in this record for CCCCCCCCOC(=O)C(N)c1cc(O)c(O)c(O)c1 (racemic) : 5.89

According to the records, this compound CCCCCCCCOC(=O)C(N)c1ccc(O)c(O)c1.Cl (racemic) [compound of formula (101), hydrochloride] displays pIC50 of 5.16

====

target: 5-LOX (Oryctolagus cuniculus); construct: 15-lipoxygenase from rabbit reticulocytes; from tissue; host or cells: rabbit reticulocytes; assay: Lipoxygenase activity, oxygraphic (Table 4 column headed 5-LOX; method describes 15-lipoxygenase); format: biochemical, rabbit
Sequence (P12530 2-663): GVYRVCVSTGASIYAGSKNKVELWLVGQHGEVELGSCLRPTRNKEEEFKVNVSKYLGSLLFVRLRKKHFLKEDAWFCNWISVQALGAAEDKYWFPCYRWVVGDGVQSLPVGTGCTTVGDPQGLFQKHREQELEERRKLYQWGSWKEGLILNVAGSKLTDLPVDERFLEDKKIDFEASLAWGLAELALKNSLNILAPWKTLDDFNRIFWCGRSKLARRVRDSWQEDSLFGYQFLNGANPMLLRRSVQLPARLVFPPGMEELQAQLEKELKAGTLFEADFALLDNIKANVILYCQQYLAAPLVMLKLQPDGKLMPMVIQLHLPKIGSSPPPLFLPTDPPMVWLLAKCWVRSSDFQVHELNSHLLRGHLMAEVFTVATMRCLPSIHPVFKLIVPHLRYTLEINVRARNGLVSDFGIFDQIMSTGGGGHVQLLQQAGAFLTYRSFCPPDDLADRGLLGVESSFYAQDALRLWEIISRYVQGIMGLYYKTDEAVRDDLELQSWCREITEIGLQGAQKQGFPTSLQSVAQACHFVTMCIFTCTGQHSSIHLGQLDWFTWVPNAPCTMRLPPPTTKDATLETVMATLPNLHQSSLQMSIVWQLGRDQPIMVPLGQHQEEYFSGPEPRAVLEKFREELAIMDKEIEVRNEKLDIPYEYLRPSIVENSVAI
Measure name: pIC50
API: returns pIC50 as number; meaning -log10 of concentration in mol/L.

Reported pIC50 ( CCCCCCCCOC(=O)C(N)c1cc(O)c(O)c(O)c1 (racemic) ) = 3.60

Please fill in: pIC50 reported for CCCCCCCCOC(=O)C(N)c1ccc(O)c(O)c1.Cl (racemic) [compound of formula (101), hydrochloride] = 5.41

====

system: hydrogen peroxide formation in casein-stimulated peritoneal granulocytes of rats; experiment: Formation of hydrogen peroxide induced by opsonated zymosan in casein-stimulated peritoneal granulocytes; assay type: cell-based, rat; details: Rattus norvegicus, 0.5 h, 5×10^6 cells/ml, 30 min incubation
Measure name: pIC50
pIC50 field: float, defined as -log10 of concentration (mol/L).

The molecule listed as CCCCCCCCOC(=O)C(N)c1ccc(O)c(O)c1.Cl (racemic) [compound of formula (101), hydrochloride] shows pIC50 equal to 5.64

The molecule identified as CCCCCCCCOC(=O)C(N)c1cc(O)c(O)c(O)c1 (racemic) registered its pIC50 at 5.28
